assay.overview: Ratio of drug uptake in pons to cerebellum in anesthetized cynomolgus monkey after 1.5 mins postinjection
Format: ADME, organism-based, Macaca fascicularis
condition.details: in vivo, 0.025 h
Entries and their Ratio
// return a plain number; no unit text

Previously resolved entries follow.
# compound, endpoint.value
data = [
    ("O=C(OCCC[18F])C1C2CCC(CC1c1cccc(/C=C\\Br)c1)N2 (centres undefined)", 0.8),
    ("O=C(OCCC[18F])C1C2CCC(CC1c1cccc(/C=C\\I)c1)N2 (centres undefined)", 0.8),
    ("O=C(OCC[18F])C1C2CCC(CC1c1cccc(/C=C\\Br)c1)N2 (centres undefined)", 1.6),
]

Please examine the following record next.
Which Ratio is listed for O=C(OCC[18F])C1C2CCC(CC1c1ccc(/C=C\I)cc1)N2 (centres undefined) ?
0.6

---

System: Putamen
assay.overview: Drug uptake in anesthetized cynomolgus monkey brain putamen after 0.5 mins postinjection
Format: ADME, organism-based, Macaca fascicularis
condition.details: in vivo
List of Drug uptake values.
Write the number on its own, no unit after it.

These recorded examples may help you get a feel for the data.
# compound, Drug uptake
data = [
    ("O=C(OCC[18F])C1C2CCC(CC1c1ccc(/C=C\\I)cc1)N2 (stereo not given)", 0),
    ("O=C(OCCC[18F])C1C2CCC(CC1c1cccc(/C=C\\Br)c1)N2 (stereo not given)", 0.01),
    ("O=C(OCCC[18F])C1C2CCC(CC1c1cccc(/C=C\\I)c1)N2 (stereo not given)", 0.01),
    ("O=C(OCC[18F])C1C2CCC(CC1c1cccc(/C=C\\I)c1)N2 (stereo not given)", 0),
]

Then there is this compound:
Request the reported Drug uptake associated with O=C(OCC[18F])C1C2CCC(CC1c1cccc(/C=C\Br)c1)N2 (stereo not given)
0.01

---

Reported Drug uptake values for a set of molecules
Test system: Thalamus
assay.overview: Drug uptake in anesthetized cynomolgus monkey brain thalamus after 1.5 mins postinjection
Format: ADME, organism-based, Macaca fascicularis
condition.details: in vivo, 0.025 h
Lab note: record just the number, no unit beside it.

Some molecules with recorded Drug uptake:
# molecule, Drug uptake
records = [
    ("O=C(OCC[18F])C1C2CCC(CC1c1cccc(/C=C\\Br)c1)N2 (stereo not given)", 0.08),
    ("O=C(OCCC[18F])C1C2CCC(CC1c1cccc(/C=C\\I)c1)N2 (stereo not given)", 0.24),
    ("O=C(OCCC[18F])C1C2CCC(CC1c1cccc(/C=C\\Br)c1)N2 (stereo not given)", 0.34),
]

Which Drug uptake value is on record for O=C(OCC[18F])C1C2CCC(CC1c1cccc(/C=C\I)c1)N2 (stereo not given) ?
0.09

Fill in the blank: the reported Drug uptake of O=C(OCC[18F])C1C2CCC(CC1c1ccc(/C=C\I)cc1)N2 (stereo not given) is ____.
0.11

---

assay.overview: Ratio of drug uptake in thalamus to cerebellum in anesthetized cynomolgus monkey after 115 mins postinjection
Type: ADME, organism-based, Macaca fascicularis
condition.details: in vivo
measured.endpoint: Ratio
Answer with a number only.

# molecule, Ratio
records = [
    ("O=C(OCC[18F])C1C2CCC(CC1c1cccc(/C=C\\Br)c1)N2 (centres undefined)", 1.5),
    ("O=C(OCCC[18F])C1C2CCC(CC1c1cccc(/C=C\\I)c1)N2 (centres undefined)", 1.4),
    ("O=C(OCC[18F])C1C2CCC(CC1c1cccc(/C=C\\I)c1)N2 (centres undefined)", 1.7),
]

Please examine the following record next.
Data request, read-out Ratio, for O=C(OCCC[18F])C1C2CCC(CC1c1cccc(/C=C\Br)c1)N2 (centres undefined)
1.5

---

Test system: Medulla
assay.overview: Drug uptake in anesthetized cynomolgus monkey brain medulla after 75 mins postinjection
Type: ADME, organism-based, Macaca fascicularis
condition.details: in vivo, 1.25 h
measured.endpoint: Drug uptake

# molecule, Drug uptake
data = [
    ("O=C(OCC[18F])C1C2CCC(CC1c1ccc(/C=C\\I)cc1)N2 (stereo not given)", 3.82),
    ("O=C(OCCC[18F])C1C2CCC(CC1c1cccc(/C=C\\I)c1)N2 (stereo not given)", 5.16),
    ("O=C(OCC[18F])C1C2CCC(CC1c1cccc(/C=C\\Br)c1)N2 (stereo not given)", 4.73),
    ("O=C(OCC[18F])C1C2CCC(CC1c1cccc(/C=C\\I)c1)N2 (stereo not given)", 3.78),
]

Next:
Quick one: Drug uptake of O=C(OCCC[18F])C1C2CCC(CC1c1cccc(/C=C\Br)c1)N2 (stereo not given) ?
5.49

---

Reported Ratio is given for each of the following compounds.
assay.overview: Ratio of drug uptake in thalamus to cerebellum in anesthetized cynomolgus monkey after 95 mins postinjection
Assay type: ADME, organism-based, Macaca fascicularis
condition.details: in vivo
Lab note: record the figure alone, no unit after it.

Past entries and their recorded results:
# compound, endpoint.value
rows = [
    ("O=C(OCC[18F])C1C2CCC(CC1c1cccc(/C=C\\I)c1)N2 (stereo not given)", 1.5),
    ("O=C(OCC[18F])C1C2CCC(CC1c1ccc(/C=C\\I)cc1)N2 (stereo not given)", 1.9),
    ("O=C(OCCC[18F])C1C2CCC(CC1c1cccc(/C=C\\I)c1)N2 (stereo not given)", 1.3),
    ("O=C(OCC[18F])C1C2CCC(CC1c1cccc(/C=C\\Br)c1)N2 (stereo not given)", 1.4),
]

So what's the measured Ratio for this one? O=C(OCCC[18F])C1C2CCC(CC1c1cccc(/C=C\Br)c1)N2 (stereo not given)
1.4

---

assay.overview: Ratio of drug uptake in putamen to cerebellum in anesthetized cynomolgus monkey after 35 mins postinjection
Type: ADME, organism-based, Macaca fascicularis
condition.details: in vivo
measured.endpoint: Ratio
Lab note: record just the number, no unit beside it.

# compound, Ratio
rows = [
    ("O=C(OCC[18F])C1C2CCC(CC1c1cccc(/C=C\\Br)c1)N2 (stereo not given)", 1.3),
    ("O=C(OCC[18F])C1C2CCC(CC1c1ccc(/C=C\\I)cc1)N2 (stereo not given)", 1.4),
    ("O=C(OCCC[18F])C1C2CCC(CC1c1cccc(/C=C\\I)c1)N2 (stereo not given)", 1.1),
    ("O=C(OCC[18F])C1C2CCC(CC1c1cccc(/C=C\\I)c1)N2 (stereo not given)", 1.1),
]

In the following, a different compound is considered.
Entry O=C(OCCC[18F])C1C2CCC(CC1c1cccc(/C=C\Br)c1)N2 (stereo not given) : reported Ratio = ?
1.1

---

Measured Drug uptake by item
assay.overview: Drug uptake in anesthetized cynomolgus monkey brain frontal lobe after 2.5 mins postinjection
Format: ADME, organism-based, Macaca fascicularis
condition.details: in vivo
Just the number, please, no unit after it.

Look over these answered cases.
# molecule, Drug uptake
records = [
    ("O=C(OCCC[18F])C1C2CCC(CC1c1cccc(/C=C\\Br)c1)N2 (stereo not given)", 0.79),
    ("O=C(OCC[18F])C1C2CCC(CC1c1cccc(/C=C\\I)c1)N2 (stereo not given)", 0.28),
    ("O=C(OCC[18F])C1C2CCC(CC1c1cccc(/C=C\\Br)c1)N2 (stereo not given)", 0.22),
    ("O=C(OCCC[18F])C1C2CCC(CC1c1cccc(/C=C\\I)c1)N2 (stereo not given)", 0.5),
]

Switching to the query record.
Given O=C(OCC[18F])C1C2CCC(CC1c1ccc(/C=C\I)cc1)N2 (stereo not given) , state its recorded Drug uptake.
0.24

---

Tested on: Putamen
assay.overview: Drug uptake in anesthetized cynomolgus monkey brain putamen after 135 mins postinjection
Assay type: ADME, organism-based, Macaca fascicularis
condition.details: in vivo, 2.25 h
measured.endpoint: Drug uptake
Reply: number alone, nothing else.

Study these solved cases before continuing.
# molecule, test.system, Drug uptake
data = [
    ("O=C(OCCC[18F])C1C2CCC(CC1c1cccc(/C=C\\I)c1)N2 (stereo not given)", "Putamen", 4.16),
    ("O=C(OCC[18F])C1C2CCC(CC1c1cccc(/C=C\\I)c1)N2 (stereo not given)", "Putamen", 3.44),
    ("O=C(OCCC[18F])C1C2CCC(CC1c1cccc(/C=C\\Br)c1)N2 (stereo not given)", "Putamen", 4.74),
]

Which Drug uptake is reported with Putamen for this entry: O=C(OCC[18F])C1C2CCC(CC1c1ccc(/C=C\I)cc1)N2 (stereo not given) ?
4.33

Please state recorded Drug uptake (tested on Putamen) of O=C(OCC[18F])C1C2CCC(CC1c1cccc(/C=C\Br)c1)N2 (stereo not given)
4.4

---

Entries annotated with measured Ratio
assay.overview: Ratio of drug uptake in caudate to cerebellum in anesthetized cynomolgus monkey after 18.5 mins postinjection
Format: ADME, organism-based, Macaca fascicularis
condition.details: in vivo
// keep it numeric: no unit symbol after the value

Answered cases to consult:
# compound, endpoint.value
measured = [
    ("O=C(OCC[18F])C1C2CCC(CC1c1ccc(/C=C\\I)cc1)N2 (centres undefined)", 0.7),
    ("O=C(OCCC[18F])C1C2CCC(CC1c1cccc(/C=C\\Br)c1)N2 (centres undefined)", 0.7),
    ("O=C(OCC[18F])C1C2CCC(CC1c1cccc(/C=C\\Br)c1)N2 (centres undefined)", 0.8),
]

// lookup Ratio for O=C(OCCC[18F])C1C2CCC(CC1c1cccc(/C=C\I)c1)N2 (centres undefined)
0.7
